target: T1, Human EphA2 (ephrin receptor A2) (human, UniProt P29317 24-976); assay: IHC/IF score on frozen human tumor tissue, UCEC-clear cell
T1 construct: Endogenous protein in frozen human tumor tissue and tumor adjacent tissue, not a recombinant construct
T1 sequence (P29317 24-976 limits assumed): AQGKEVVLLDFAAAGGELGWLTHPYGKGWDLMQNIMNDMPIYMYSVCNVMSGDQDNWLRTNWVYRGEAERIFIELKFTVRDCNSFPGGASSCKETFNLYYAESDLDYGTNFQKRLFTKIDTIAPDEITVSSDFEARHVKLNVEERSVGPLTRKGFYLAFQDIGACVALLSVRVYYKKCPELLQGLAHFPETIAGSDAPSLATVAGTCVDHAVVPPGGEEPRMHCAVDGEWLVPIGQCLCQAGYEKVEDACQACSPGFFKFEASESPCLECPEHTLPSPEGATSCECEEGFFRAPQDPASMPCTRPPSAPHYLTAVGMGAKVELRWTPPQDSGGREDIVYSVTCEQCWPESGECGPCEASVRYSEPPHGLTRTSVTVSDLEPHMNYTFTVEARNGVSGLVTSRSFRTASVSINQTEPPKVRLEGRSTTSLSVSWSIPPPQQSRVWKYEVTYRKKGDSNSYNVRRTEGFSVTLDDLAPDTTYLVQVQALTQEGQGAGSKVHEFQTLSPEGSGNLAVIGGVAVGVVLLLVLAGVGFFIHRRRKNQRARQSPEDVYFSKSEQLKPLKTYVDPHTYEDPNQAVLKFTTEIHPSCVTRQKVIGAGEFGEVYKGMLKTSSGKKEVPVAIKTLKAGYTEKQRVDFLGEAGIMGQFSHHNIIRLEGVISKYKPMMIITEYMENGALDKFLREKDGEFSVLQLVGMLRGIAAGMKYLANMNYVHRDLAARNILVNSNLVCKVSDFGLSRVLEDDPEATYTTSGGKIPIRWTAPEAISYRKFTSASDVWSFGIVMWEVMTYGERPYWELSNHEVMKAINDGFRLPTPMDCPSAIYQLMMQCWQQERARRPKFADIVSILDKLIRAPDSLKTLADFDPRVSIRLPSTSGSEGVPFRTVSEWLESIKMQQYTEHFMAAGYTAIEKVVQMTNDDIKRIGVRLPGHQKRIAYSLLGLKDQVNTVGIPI
Recorded metric: IHC score

{"Binder": "AB-009813 (antibody, mouse IgG2a, V domains shown) VH: QVQLQQWGAGLLKPSETLSLTCAVYGGSFSDYYWSWIRQPPGKGLEWIGEVNHAGSINYNNYNPSLKSRVTISVDPSKNQFSLKLTSVTAADTAVYYCAKPLRPHCTNGVCYSGDAFDIWGQGTMVTVAS VL: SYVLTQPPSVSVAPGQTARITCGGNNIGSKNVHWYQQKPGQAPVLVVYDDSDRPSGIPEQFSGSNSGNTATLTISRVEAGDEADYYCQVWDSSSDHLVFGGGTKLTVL", "Assay value": 2}
{"Binder": "AB-009816 (antibody, mouse IgG2a, V domains shown) VH: QVQLQQWGAGLLKPSETLSLTCAVYGGSFSDYYWSWIRQPPGKGLEWIGEVNHRGSINYNNYNPSLKSRVTISVDASKNQFSLKLTSVTAADTAVYYCAKPLRPHCTNGVCYSGDAFDIWGQGTMVTVAS VL: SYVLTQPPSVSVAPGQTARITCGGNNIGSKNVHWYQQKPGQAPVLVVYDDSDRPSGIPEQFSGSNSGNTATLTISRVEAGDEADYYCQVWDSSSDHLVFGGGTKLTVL", "Assay value": 2}
{"Binder": "AB-009812 (antibody, mouse IgG2a, V domains shown) VH: QVQLQQWGAGLLKPSETLSLTCAVYGGSFSDYYWSWIRQPPGKGLEWIGEVNHSGSINYNNYNPSLKSRVTISVDPSKNQFSLKLTSVTAADTAVYYCAKPLRPHCTNGVCYSGDAFDIWGQGTMVTVAS VL: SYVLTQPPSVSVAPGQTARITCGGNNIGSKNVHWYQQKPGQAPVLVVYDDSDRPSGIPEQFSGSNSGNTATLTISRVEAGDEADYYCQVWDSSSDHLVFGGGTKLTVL", "Assay value": 1}
{"Binder": "AB-009815 (antibody, mouse IgG2a, V domains shown) VH: QVQLQQWGAGLLKPSETLSLTCAVYGGSFSDYYWSWIRQPPGKGLEWIGEVNHRGSINYNNYNPSLKSRVTISVDTSKNQFSLKLTSVTAADTAVYYCAKPLRPHCTNGVCYSGDAFDIWGQGTMVTVAS VL: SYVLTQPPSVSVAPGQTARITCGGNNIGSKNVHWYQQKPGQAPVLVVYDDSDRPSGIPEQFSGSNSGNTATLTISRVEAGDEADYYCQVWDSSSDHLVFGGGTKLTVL", "Assay value": 2}
